# System: Respiratory Syncytial Virus (RSV) long strain
# protocol: microbe, parasite or virus in culture
# Format: cell-based
# condition-summary: human respiratory syncytial virus, HEp-2, 120 h, read-out: 50% effective concentration (EC50), HEp-2 cells infected with RSV long strain, 5 days, CCK-8 readout; Tables A and B list compounds by EC50 band
quantity-name: EC50

compound	result
COc1cc(C(=O)NCC(O)(c2cc3c(c(-c4ccc(Cl)c(Cl)c4)n2)OCC3(C)N)C(F)(F)F)ccc1OCCO (stereo not shown) [Compound 662]	< 1 µM
COc1cc(C(=O)NCC(O)(c2cc(C(C)(C)NC(C)=O)cc(-c3ccc(F)c(Cl)c3)n2)C(F)(F)F)ccc1OCC(N)=O (stereo not shown) [Compound 612]	< 1 µM
CNCC(O)(CNC(=O)c1ccc(OCCO)c(OC)c1)c1ccc(OC)c(-c2ccc(F)c(Cl)c2)n1 (stereo not shown) [Compound 177]	1 to 50 µM
COc1cc(C(=O)NCC(O)(c2ccc(OC)c(-c3ccc(F)c(Cl)c3)n2)C2CC2)ccc1OCCO (stereo not shown) [Compound 241]	< 1 µM
